B1: TRIM39 (parent)
chain: YPCVLATEGFTSGRHYWEVEVGDK

Variants of: B1
Assay: protein stability index of a GFP-peptide fusion (GPS, HEK-293T) (PSI 1-6); higher = more stable;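 note: lentivirally expressed fusions sorted by FACS into six bins by GFP to DsRed ratio, PSI derived from sequencing read proportions per bin multiplied by bin number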
Settings: c terminus: a fixed tail appended
# label = y if protein stability index >= 2 else n

sequenceInput: YPCVYATEGFTSGRHYWEVEVGDK
labelValue: y
//
sequenceInput: YPCVLSTEGFTSGRHYWEVEVGDK
labelValue: n
//
sequenceInput: YPCVLATEVFTSGRHYWEVEVGDK
labelValue: n
//
sequenceInput: YPCVLATEGFTSGRHYWEIEVGDK
labelValue: y
//
sequenceInput: YPCVNATEGFTSGRHYWEVEVGDK
labelValue: y
//
sequenceInput: YPCVLATEGFTSGRHYWEVEVGAK
labelValue: n
//
sequenceInput: YPCVLATEGFTSGRHYWEVEVGTK
labelValue: y
//
sequenceInput: YPCVLAYEGFTSGRHYWEVEVGDK
labelValue: n
//
sequenceInput: YPCVLATEGFTSGRHYWEVEVGDP
labelValue: y
//
sequenceInput: YPCVLATEGFTSGRHYWQVEVGDK
labelValue: n
//
sequenceInput: YPCVLATEGFTSGRHYWESEVGDK
labelValue: n
//
sequenceInput: YPCVLATEGFTSGRHYGEVEVGDK
labelValue: y
